# system-under-test: serotonin transporter (SERT) (Homo sapiens (Human))
# procedure-details: SERT fluorescent substrate uptake inhibition in transfected HEK293 cells
# condition-details: HEK293 cells expressing SERT
Counter-ions that a name gives are not always drawn.
The compounds listed here are annotated with their pIC50.
Scale: negative log10 of molar concentration, which is what pIC50 denotes.

CN(C)CCc1c[nH]c2ccccc12 [DMT, N,N-dimethyltryptamine, reference compound] : 5.53
CN(C)CCc1c[nH]c2cccc(O)c12 [Psilocin, psilocin, reference compound] : 5.69
CCN(C)CCc1c[nH]c2ccc(F)cc12 [Compound 4, hydrochloride] : 6.38
CCN(C)CCc1c[nH]c2ccccc12 : 5.04
CCN(C)CCc1c[nH]c2cccc(O)c12 : 5.49

Bench note: what pIC50 did COc1ccc2[nH]cc(CCN(C)C)c2c1 [Compound 5-MeO-DMT, 5-methoxy-N,N-dimethyltryptamine, reference compound] show? 5.15

// query pIC50 value for entry CCCN(CC)CCc1c[nH]c2ccccc12 6.12

The reported numbers originate from patent US20240317683A1.
